Source of measurements: paper PMC8552062

Molecular target: UGT1A9 (Homo sapiens, UniProt O60656)
Sequence (O60656 26-530): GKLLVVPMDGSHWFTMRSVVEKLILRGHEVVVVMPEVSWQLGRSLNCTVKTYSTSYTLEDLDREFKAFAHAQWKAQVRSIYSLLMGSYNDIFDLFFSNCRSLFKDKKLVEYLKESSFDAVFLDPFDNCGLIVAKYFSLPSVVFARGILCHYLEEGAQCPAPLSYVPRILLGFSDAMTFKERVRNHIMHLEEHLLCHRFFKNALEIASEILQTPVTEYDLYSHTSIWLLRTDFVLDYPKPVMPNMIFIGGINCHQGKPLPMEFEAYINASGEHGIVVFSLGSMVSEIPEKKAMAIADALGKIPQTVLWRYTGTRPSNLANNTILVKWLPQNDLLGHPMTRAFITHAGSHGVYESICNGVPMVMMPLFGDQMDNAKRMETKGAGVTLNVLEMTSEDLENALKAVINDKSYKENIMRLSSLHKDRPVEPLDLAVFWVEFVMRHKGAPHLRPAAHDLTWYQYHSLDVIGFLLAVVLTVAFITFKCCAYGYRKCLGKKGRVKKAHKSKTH
Experiment: UGT1A9 inhibition in HLM (mycophenolic acid glucuronidation)
Assay type: in vitro ADME
Design: tissue XenoTech LLC; host or cells: pooled human liver microsomes
Conditions: human, human liver microsomes (HLM), probe mycophenolic acid; HLM, 100 μM test compound
// values below are reported inhibition at 100 µM

{"COMPOUND": "CCCSc1nc(N[C@@H]2C[C@H]2c2ccc(F)c(F)c2)c2nnn([C@@H]3C[C@H](OCCO[C@@H]4O[C@H](C(=O)O)[C@@H](O)[C@H](O)[C@H]4O)[C@@H](O)[C@H]3O)c2n1 [Ticagrelor-O-Glu, ticagrelor-O-glucuronide]", "OBSERVED MEASUREMENT": "61.4%"}

// switching to the query compound
Please look up its inhibition at 100 µM: CCCSc1nc(N[C@@H]2C[C@H]2c2ccc(F)c(F)c2)c2nnn([C@@H]3C[C@H](OCCO)[C@@H](O)[C@H]3O)c2n1 [Ticagrelor]
13.3%
